Values from patent US9174996B2

test system: K562 cells; experiment: Cell death assay, Experiment 2 (IC50, live cells counted by trypan blue); type: cell-based; details: Homo sapiens, 48 h
RECORDED_METRIC: IC50
Record the result as number plus unit.

Please look at this compound and report its IC50: Cc1ccc(C(=O)Nc2ccc3c(c2)C(F)(F)CC3N2CCN(C)CC2)cc1C#Cc1cnc(NC2CC2)nc1 (racemic) [Compound 37]
3.4 nM

Please look at this compound and report its IC50: Cc1cn(-c2cc(NC(=O)c3ccc(C)c(C#Cc4ccc(NC5CC5)nn4)c3)cc(C(F)(F)F)c2)cn1 [Compound 23]
16 nM

Please look at this compound and report its IC50: Cc1ccc(C(=O)Nc2ccc(CN3CCN(C)CC3)c(C(F)(F)F)c2)cc1C#Cc1ccc(NC2CCC2)nn1 [Compound 13]
11 nM

* * *

test system: U937; assay: MTT cell viability assay, Experiment 3; format: cell-based; details: Homo sapiens, U-937; MTT, Mean ± S.E.M, two independent experiments; read-out: IC50 cell viability, Non-CML leukemia cells U937
RECORDED_METRIC: IC50

Please look at this compound and report its IC50: CN1CCN([C@H]2CC(F)(F)c3cc(NC(=O)c4ccc(Cl)c(C#Cc5cnc6cccnn56)c4)ccc32)CC1 (single isomer, unassigned) [Compound 38-(S)]
> 1000 nM

Please look at this compound and report its IC50: Cc1ccc(C(=O)Nc2ccc3c(c2)C(F)(F)CC3N2CCN(C)CC2)cc1C#Cc1cnc2cccnn12 (racemic)
608 nM

Please look at this compound and report its IC50: Cc1ccc(C(=O)Nc2ccc3c(c2)C(F)(F)C[C@H]3N2CCN(C)CC2)cc1C#Cc1cnc2cccnn12 [36-(R)]
> 1000 nM

* * *

RECORDED_METRIC: melting point

Please look at this compound and report its melting point: Cc1ccc(-c2nc3ccc(CN4CCN(C)CC4)cc3[nH]2)cc1C#Cc1ccc(NC2CC2)nn1 [Compound 2]
145 to 146 °C

Please look at this compound and report its melting point: CC(C)Nc1ccc(C#Cc2cc(-c3nc4ccc(CN5CCN(C)CC5)cc4[nH]3)ccc2Cl)nn1 [Compound 9]
127 to 128 °C

Please look at this compound and report its melting point: CN1CCN(C2CC(F)(F)c3cc(NC(=O)c4ccc(F)c(C#Cc5cnc6cccnn56)c4)ccc32)CC1 (racemic) [Compound 39]
118 to 121 °C

Please look at this compound and report its melting point: Cc1cn(-c2ccc(NC(=O)c3ccc(Cl)c(C#Cc4cnc(NC5CC5)nc4)c3)cc2C(F)(F)F)cn1 [Compound 29]
141 to 143 °C

Please look at this compound and report its melting point: Cc1ccc(-c2nc3ccc(CN4CCN(C)CC4)cc3[nH]2)cc1C#Cc1ccc(NC2CCC2)nn1 [Compound 1]
148 to 150 °C

Please look at this compound and report its melting point: CN1CCN(C2CC(F)(F)c3cc(NC(=O)c4ccc(Cl)c(C#Cc5cnc6cccnn56)c4)ccc32)CC1 (racemic) [Compound 38]
140 to 142 °C

Please look at this compound and report its melting point: Cc1cn(-c2cc(NC(=O)c3ccc(Cl)c(C#Cc4cnc(NC5CC5)nc4)c3)cc(C(F)(F)F)c2)cn1 [Compound 33]
163 to 165 °C

* * *

target: Ba/F3 cells expressing BCR-ABL T315I (Homo sapiens, UniProt P00519, T315I, cells depend on it); assay: MTT cell viability assay, Experiment 3; format: cell-based, murine; conditions: Mean ± S.E.M, two independent experiments, read-out: IC50 cell viability, Ba/F3 cells T315I BCR-ABL
RECORDED_METRIC: GI50 (nM)
// units = nM; emit number, no label

Please look at this molecule and report its GI50: CN1CCN(C2CC(F)(F)c3cc(NC(=O)c4ccc(F)c(C#Cc5cnc6cccnn56)c4)ccc32)CC1 (racemic) [Compound 39]
13

Please look at this molecule and report its GI50: CN1CCN([C@H]2CC(F)(F)c3cc(NC(=O)c4ccc(F)c(C#Cc5cnc6cccnn56)c4)ccc32)CC1 (single isomer, unassigned) [39-(S)]
6.5

* * *

system: U937; assay: MTT cell viability assay, Experiment 3; format: cell-based; details: Homo sapiens, U-937, read-out: IC50 cell viability, Non-CML leukemia cells U937
RECORDED_METRIC: IC50 (nM)
// units = nM; emit number, no label

Please look at this molecule and report its IC50: Cc1ccc(C(=O)Nc2ccc(CN3CCN(C)CC3)c(C(F)(F)F)c2)cc1C#Cc1cnc2cccnn12 [Ponatinib, reference compound]
246

* * *

test system: U937; assay: MTT cell viability assay, Experiment 3; assay type: cell-based; details: Homo sapiens, U-937; MTT, Mean ± S.E.M, two independent experiments; read-out: IC50 cell viability, Non-CML leukemia cells U937
RECORDED_METRIC: IC50

Specify the recorded IC50 for CN1CCN([C@@H]2CC(F)(F)c3cc(NC(=O)c4ccc(F)c(C#Cc5cnc6cccnn56)c4)ccc32)CC1 (single isomer, unassigned) [39-(R)] , system: U937.
> 1000 nM

Specify the recorded IC50 for CN1CCN(C2CC(F)(F)c3cc(NC(=O)c4ccc(Cl)c(C#Cc5cnc6cccnn56)c4)ccc32)CC1 (racemic) , system: U937.
> 1000 nM

Specify the recorded IC50 for CN1CCN([C@H]2CC(F)(F)c3cc(NC(=O)c4ccc(F)c(C#Cc5cnc6cccnn56)c4)ccc32)CC1 (single isomer, unassigned) [39-(S)] , system: U937.
> 1000 nM

* * *

Target: Ba/F3 cells expressing BCR-ABL T315I (Homo sapiens, UniProt P00519, T315I, cells depend on it)
Experiment: MTT cell viability assay, Experiment 3
Format: cell-based, murine
Conditions: Mean ± S.E.M, two independent experiments, read-out: IC50 cell viability, Ba/F3 cells T315I BCR-ABL
Procedure: This study evaluated the effect of the pure optical isomers on human leukemia cell viability in vitro. […] Two BCR-ABL-positive human leukemia cell lines, K562 and KU812, were used in this study. […] Cells were seeded in 24-well plates, and treated with drugs at corresponding concentrations. Cell viability was measured using a MTT (3-(4,5-dimethylthiazol-2-yl)-2,5-diphenyltetrazolium bromide)-based colorimetric assay with a 96-well plate reader. […]
RECORDED_METRIC: GI50

Please look at this molecule and report its GI50: Cc1ccc(C(=O)Nc2ccc3c(c2)C(F)(F)C[C@H]3N2CCN(C)CC2)cc1C#Cc1cnc2cccnn12 [36-(R)]
> 100 nM

Please look at this molecule and report its GI50: CN1CCN([C@@H]2CC(F)(F)c3cc(NC(=O)c4ccc(Cl)c(C#Cc5cnc6cccnn56)c4)ccc32)CC1 (single isomer, unassigned) [38-(R)]
> 100 nM

Please look at this molecule and report its GI50: CN1CCN([C@@H]2CC(F)(F)c3cc(NC(=O)c4ccc(F)c(C#Cc5cnc6cccnn56)c4)ccc32)CC1 (single isomer, unassigned) [39-(R)]
> 100 nM
